biological target: T1, HSP70 (human HSP70; the antigen of the binning, humanization and variant binding assays) (human, UniProt P0DMV8 1-641, limits assumed); experiment: BLI, anti-human Fc capture, antigen 100 nM
T1 construct: also called hu HSP70
T1 sequence (P0DMV8 whole entry, change not shown): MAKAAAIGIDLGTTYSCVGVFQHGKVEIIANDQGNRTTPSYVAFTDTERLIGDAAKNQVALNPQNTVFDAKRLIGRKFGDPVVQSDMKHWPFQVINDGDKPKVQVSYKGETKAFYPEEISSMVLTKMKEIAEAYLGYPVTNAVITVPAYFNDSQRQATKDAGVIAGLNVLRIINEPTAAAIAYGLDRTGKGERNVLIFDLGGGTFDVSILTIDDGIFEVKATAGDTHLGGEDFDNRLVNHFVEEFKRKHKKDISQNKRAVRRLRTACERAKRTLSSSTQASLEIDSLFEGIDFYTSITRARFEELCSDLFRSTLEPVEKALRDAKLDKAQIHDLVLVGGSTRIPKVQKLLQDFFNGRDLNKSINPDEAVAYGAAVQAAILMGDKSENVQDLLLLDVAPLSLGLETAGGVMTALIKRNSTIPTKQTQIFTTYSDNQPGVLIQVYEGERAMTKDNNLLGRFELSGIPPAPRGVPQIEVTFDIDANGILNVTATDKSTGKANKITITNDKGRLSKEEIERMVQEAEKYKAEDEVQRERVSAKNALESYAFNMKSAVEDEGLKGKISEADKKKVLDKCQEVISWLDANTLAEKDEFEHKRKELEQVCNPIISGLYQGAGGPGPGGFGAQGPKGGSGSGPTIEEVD
Let's look at some binders and their measured % Diss.
Write your answer as a measured quantity: the number, then the unit.

Query :: Suppose we examine the binder h77A-1.4 (antibody, V domains shown, captured by anti-human Fc) VH: QIQLVQSGAEVKKPGASVKVSCKASGYTFTNYGMNWVRQAPGQGLEWMGWINTYTGEPIYADDFKGRFTFTTDTSTSTAYMELRSLRSDDTAVYFCARYDHAMDYWGQGTLVTVSS VL: EIVLTQSPDSLAVSLGERATINCKSSQSLLNSGTRKNYLAWYQQKAGQSPKLLIYWTSTRESGVPDRFSGSGSGTDFTLTIDSLQAEDVAVYYCKQSYTLYTFGGGTKVEIK ; what % Diss value has been reported?
Result :: 31.8%

Query :: Suppose we examine the binder h77A-1.50 (antibody, V domains shown, captured by anti-human Fc) VH: QIHLVQSGVEVKKPGASVKVSCKASGYTFTNYGMNWVRQAPGQGLEWMGWINTYTGEPTYTDDFKGRFTFTTDTSTSTAYMELRSLRSDDTAVYFCARYDHAMDYWGQGTLVTVSS VL: EIVLTQSPDSLAVSLGERATINCKSSQSLLNSGTRKNYLAWYQQKAGQSPKLLIYWTSTRESGVPDRFSGSGSGTDFTLTIDSLQAEDVAIYYCKQSYTLYTFGGGTKVEIK ; what % Diss value has been reported?
Result :: 11.2%

Query :: Suppose we examine the binder h77A-1.3 (antibody, V domains shown, captured by anti-human Fc) VH: QIQLVQSGAEVKKPGASVKVSCKASGYTFTNYGMNWVRQAPGQGLEWMGWINTYTGEPTYADDFKGRFTFTTDTSTSTAYMELRSLRSDDTAVYFCARYDHRMDYWGQGTLVTVSS VL: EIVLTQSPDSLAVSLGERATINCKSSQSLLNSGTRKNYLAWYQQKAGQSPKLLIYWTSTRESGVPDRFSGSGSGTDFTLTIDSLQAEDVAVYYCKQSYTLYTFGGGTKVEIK ; what % Diss value has been reported?
Result :: 28.7%
